B1: glmS ribozyme (parent)
chain: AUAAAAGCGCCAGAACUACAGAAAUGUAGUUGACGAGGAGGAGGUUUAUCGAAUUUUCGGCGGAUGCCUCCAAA

- Variants of: B1
- procedureSummary: self-cleavage kobs at 2500 uM GlcN6P; higher = faster cleavage; RNA array
- testConditions: with glucosamine-6-phosphate
Variants at the floor of the assay were thinned out.
propertyLabel: self-cleavage kobs at 2500 uM GlcN6P

G29A A36U A39G G41U C67G : < 1e-05 s⁻¹

Give its self-cleavage kobs at 2500 uM GlcN6P value. Item: A6U A33C
< 1e-05 s⁻¹

How about C11A C34A G41A ?
< 1e-05 s⁻¹

How about G9A G29C G37U A48G A52C C70G ?
< 1e-05 s⁻¹

How about G29U A39U G59C C61A ?
< 1e-05 s⁻¹

How about G9C A39U G40U ?
< 1e-05 s⁻¹

How about G38C C58U ?
< 1e-05 s⁻¹

How about G9U G29C A33U A64U ?
< 1e-05 s⁻¹

How about C16G G37U A42G ?
< 1e-05 s⁻¹

How about G32U G63U ?
< 1e-05 s⁻¹

How about G13U A14C G32U C61G ?
< 1e-05 s⁻¹

How about A12C C34A ?
< 1e-05 s⁻¹

How about U47A A48U ?
0.000143 s⁻¹

How about A14C U54G ?
0.00296 s⁻¹

How about G32C A33G A42U U45G U57C A64C C71A ?
< 1e-05 s⁻¹

How about G43U C58G ?
< 1e-05 s⁻¹

How about U54G C61U ?
3.11e-05 s⁻¹

Data origin: the supplement of paper PMC7125110
